The reported numbers originate from the supplement of paper PMC10307832.

# relative viability per entry
System: HCC-78
Experiment: relative viability (nuclei count vs DMSO), 5 days (fraction); higher = more cells survive
Settings: first compound 0.04 µM
property measured: relative viability

1. COc1cc(N2CCC(C(N)=O)CC2)ccc1Nc1nc(N)c(Cl)c(Nc2ccccc2S(=O)(=O)C(C)C)n1 [HG-5-88-01] + NC(=O)Nc1cc(-c2cccc(F)c2)sc1C(=O)N[C@H]1CCCNC1 [AZD7762] (partner 0.2 µM) ... 0.576
2. C[C@@H]1CN(CC(=O)Nc2ccc3c(c2)Cc2cccc(-c4cc(=O)cc(N5CCOCC5)o4)c2S3)C[C@H](C)O1 + CC(C)C[C@H](NC(=O)[C@H](Cc1ccccc1)NC(=O)c1cnccn1)B(O)O [Bortezomib] (partner 0.002 µM) ... 0.404
3. Clc1ccc(Nc2nnc(Cc3ccncc3)c3ccccc23)cc1 [Vatalanib] + COc1cc2c(Oc3ccc(NC(=O)C4(C(=O)Nc5ccc(F)cc5)CC4)cc3F)ccnc2cc1OCCCN1CCOCC1 [Foretinib] (partner 0.25 µM) ... 0.531
4. COc1cc(N2CCC(C(N)=O)CC2)ccc1Nc1nc(N)c(Cl)c(Nc2ccccc2S(=O)(=O)C(C)C)n1 [HG-5-88-01] + CC(=O)c1c(C)c2cnc(Nc3ccc(N4CCNCC4)cn3)nc2n(C2CCCC2)c1=O [Palbociclib] (partner 0.5 µM) ... 0.465
5. C[C@@H]1CN(CC(=O)Nc2ccc3c(c2)Cc2cccc(-c4cc(=O)cc(N5CCOCC5)o4)c2S3)C[C@H](C)O1 + Nc1ncn([C@H]2C[C@H](O)[C@@H](CO)O2)c(=O)n1 [Decitabine] (partner 2 µM) ... 0.65
6. C[C@@H]1CN(CC(=O)Nc2ccc3c(c2)Cc2cccc(-c4cc(=O)cc(N5CCOCC5)o4)c2S3)C[C@H](C)O1 + COc1cccc2cc(-c3nc([C@H]4CC[C@H](C(=O)O)CC4)n4ncnc(N)c34)[nH]c12 [OSI-027] (partner 0.5 µM) ... 0.372
7. Clc1ccc(Nc2nnc(Cc3ccncc3)c3ccccc23)cc1 [Vatalanib] + Nc1ncn([C@H]2C[C@H](O)[C@@H](CO)O2)c(=O)n1 [Decitabine] (partner 2 µM) ... 0.744
8. COc1cc(N2CCC(C(N)=O)CC2)ccc1Nc1nc(N)c(Cl)c(Nc2ccccc2S(=O)(=O)C(C)C)n1 [HG-5-88-01] + O=C(c1cc(Cc2n[nH]c(=O)c3ccccc23)ccc1F)N1CCN(C(=O)C2CC2)CC1 [Olaparib] (partner 8 µM) ... 0.868
9. COc1cc(N2CCC(C(N)=O)CC2)ccc1Nc1nc(N)c(Cl)c(Nc2ccccc2S(=O)(=O)C(C)C)n1 [HG-5-88-01] + O=C(CCCCCCC(=O)Nc1ccccc1)NO [Vorinostat] (partner 1 µM) ... 0.467
